Where a name gives a salt, the structure may show the parent alone.
Reported Compound Myofibroblast Cytotoxicity Activity, hDMFa myofibroblast cells.

Solved entries:
Compound	Meas Value
C[C@H]1O[C@@H](n2cc(F)c(=O)[nH]c2=O)[C@H](O)[C@@H]1O [Cmpd 387, Doxifluridine]	++++
Nc1ccc(S(=O)(=O)Nc2ccnn2-c2ccccc2)cc1 [Cmpd 899, Sulfaphenazole]	+++
Cc1occc(=O)c1O [Cmpd 52]	++
C#CCN(C)Cc1ccccc1 [Cmpd 757, Pargyline (hydrochloride)]	++
CNCCCN1c2ccccc2CCc2ccccc21.Cl [Cmpd 342, Desipramine hydrochloride]	++++
C=CC(=O)Nc1cccc(Oc2nc(Nc3ccc(N4CCN(C)CC4)cc3)nc3ccsc23)c1 [Cmpd 735, Olmutinib (HM61713, BI1482694)]	++++

For each of the items listed, what is its Compound Myofibroblast Cytotoxicity Activity?
1. C[C@]12CC[C@H]3[C@@H](CC[C@@]45O[C@@H]4C(O)=C(C#N)C[C@]35C)[C@@H]1CC[C@@H]2O [Cmpd 973, Trilostane]
2. C=C1/C(=C\C=C2/CCC[C@]3(C)[C@@H]([C@H](C)CCCC(C)C)CC[C@@H]23)C[C@@H](O)C[C@@H]1O [Cmpd 98, Alfacalcidol]

Marked response:
1: ++; 2: +++

###

hDMFa myofibroblast cells data, read-out Compound Myofibroblast Cytotoxicity Activity
Where a name gives a salt, the structure may show the parent alone.

Compound	System Tested	Meas Value
C/C=C/c1ccc(OC)cc1 [Cmpd 963, Trans-Anethole]	hDMFa myofibroblast cells	++
O=C([O-])[O-].[Li+].[Li+] [Cmpd 595, Lithium carbonate]	hDMFa myofibroblast cells	++++
Cc1ccccc1C(=O)O [Cmpd 742, o-Toluic acid]	hDMFa myofibroblast cells	++
CC1(C)S[C@@H]2[C@H](NC(=O)[C@H](N)c3ccccc3)C(=O)N2[C@H]1C(=O)OCOC(=O)[C@@H]1N2C(=O)C[C@H]2S(=O)(=O)C1(C)C [Cmpd 902, Sultamicillin]	hDMFa myofibroblast cells	++
C[C@]12CC[C@@H]3c4ccc(O)cc4CC[C@H]3[C@@H]1CC[C@@H]2OC(=O)CCC1CCCC1 [Cmpd 430, Estradiol Cypionate]	hDMFa myofibroblast cells	+++

Consider the following items and state reported Compound Myofibroblast Cytotoxicity Activity for each.
1. Cc1cccc(CN2CCN(C(c3ccccc3)c3ccc(Cl)cc3)CC2)c1.Cl.Cl (stereo not drawn) [Cmpd 641, Meclizine 2HCl]
2. Cl.NCc1ccc(S(N)(=O)=O)cc1 [Cmpd 627, Mafenide hydrochloride]
3. Cc1ncc(C[n+]2csc(CCO)c2C)c(N)n1.Cl.[Cl-] [Cmpd 939, Thiamine HCl (Vitamin B1)]
4. CC(=O)OC(C)C[N+](C)(C)C (stereo not drawn) [Cmpd 655, Methacholine chloride]
5. CC(=O)O[C@@H]1CC[C@@]2(C)[C@@H](CC[C@]3(C)[C@@H]2C(=O)C=C2[C@@H]4[C@@H](C)[C@H](C)CC[C@]4(C)CC[C@]23C)[C@@]1(C)C(=O)O [Cmpd 51, 3-acetyl-11-keto-β-Boswellic Acid]
6. Cl.OC(c1cc(C(F)(F)F)nc2c(C(F)(F)F)cccc12)C1CCCCN1 (stereo not drawn) [Cmpd 644, Mefloquine hydrochloride]

Marked response:
1: ++; 2: ++; 3: ++; 4: ++; 5: +++++; 6: ++++

Dear colleague, could you send me Compound Myofibroblast Cytotoxicity Activity for each of the items below? Thanks.
1. CO[C@H]1C[C@@H]2CC[C@@H](C)[C@@](O)(O2)C(=O)C(=O)N2CCCC[C@H]2C(=O)O[C@H]([C@H](C)C[C@@H]2CC[C@@H](OC(=O)C(C)(CO)CO)[C@H](OC)C2)CC(=O)[C@H](C)/C=C(\C)[C@@H](O)[C@@H](OC)C(=O)[C@H](C)C[C@H](C)/C=C/C=C/C=C/1C [Cmpd 924, Temsirolimus (CCl-779, NSC 683864)]
2. N#C[C@@H]1C[C@@H]2C[C@@H]2N1C(=O)[C@@H](N)C12CC3CC(CC(O)(C3)C1)C2 [Cmpd 854, Saxagliptin hydrate]
3. O=C(O)CCC(=O)Nc1ccc(S(=O)(=O)Nc2nccs2)cc1 [Cmpd 891, Succinylsulfathiazole]
4. C#C[C@]1(O)CC[C@H]2[C@@H]3CCC4=CCCC[C@@H]4[C@H]3C(=C)C[C@@]21CC [Cmpd 344, Desogestrel]
5. COC(=O)C1=C(C#N)NC(C)=C(C(=O)OC(C)C)C1c1cccc([N+](=O)[O-])c1 (stereo not drawn) [Cmpd 715, Nilvadipine]
6. CCC(=O)c1c(O)cc(O)cc1O [Cmpd 458, Flopropione]
7. Cc1nnc(NS(=O)(=O)c2ccc(N)cc2)s1 [Cmpd 896, Sulfamethizole]
8. C=C1/C(=C\C=C2/CCC[C@]3(C)[C@@H]([C@H](C)CCCC(C)(C)O)CC[C@@H]23)C[C@@H](O)C[C@@H]1O [Cmpd 204, Calcitriol]

Marked response:
["+++++", "++", "++", "+++", "+++", "++", "++++", "+++"]

Required: Compound Myofibroblast Cytotoxicity Activity, one value per compound below.
1. COc1cc(Nc2ncc(F)c(Nc3ccc4c(n3)N(COP(=O)([O-])[O-])C(=O)C(C)(C)O4)n2)cc(OC)c1OC.[Na+].[Na+] [Cmpd 816, R788 disodium]
2. CC(C)(C)C#Cc1cc(N(C(=O)[C@H]2CC[C@H](C)CC2)[C@H]2CC[C@H](O)CC2)c(C(=O)O)s1 [Cmpd 1014, VX-222 (VCH-222,Lomibuvir)]
3. COc1cc2nc(N3CCN(C(=O)C4COc5ccccc5O4)CC3)nc(N)c2cc1OC (stereo not drawn) [Cmpd 384, Doxazosin Mesylate]
4. O=P1(NCCCl)OCCCN1CCCl (stereo not drawn) [Cmpd 518, Ifosfamide]
5. Oc1c(Cl)cc(Cl)c2cccnc12 [Cmpd 251, Chloroxine]

Marked response:
1. ++
2. ++
3. +++
4. +++
5. ++++

For every listed record, write down its Compound Myofibroblast Cytotoxicity Activity.
1. OCCN1CCN(CCCN2c3ccccc3Sc3ccc(Cl)cc32)CC1 [Cmpd 773, Perphenazine]
2. COC(=O)[C@]12CCC(C)(C)C[C@H]1[C@H]1C(=O)C=C3[C@@]4(C)C=C(C#N)C(=O)C(C)(C)[C@@H]4CC[C@@]3(C)[C@]1(C)CC2 [Cmpd 156, Bardoxolone methyl]
3. O=C(O)CCNC(=O)c1ccccc1 [Cmpd 177, Betamipron]

Marked response:
1. +++++
2. +++++
3. +++++
